TEST_DESCRIPTION: self-splicing fitness, log relative to wild type (ln ratio); higher = more splicing; Tetrahymena group I intron in knt gene, E. coli kanamycin selection, DiMSum; sequences stand for … in CUCUCU…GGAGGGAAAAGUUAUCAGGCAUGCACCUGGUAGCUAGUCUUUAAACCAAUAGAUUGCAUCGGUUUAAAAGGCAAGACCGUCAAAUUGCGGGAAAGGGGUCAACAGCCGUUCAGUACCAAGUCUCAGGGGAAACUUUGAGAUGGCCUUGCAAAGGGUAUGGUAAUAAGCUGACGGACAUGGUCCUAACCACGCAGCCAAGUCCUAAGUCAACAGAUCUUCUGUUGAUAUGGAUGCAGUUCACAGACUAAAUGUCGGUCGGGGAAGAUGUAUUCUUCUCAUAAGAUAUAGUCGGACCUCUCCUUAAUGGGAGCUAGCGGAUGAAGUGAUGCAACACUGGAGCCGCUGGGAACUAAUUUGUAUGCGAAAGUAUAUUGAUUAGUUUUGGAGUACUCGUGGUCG;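 note: selection with 25 µg/mL kanamycin versus none on LB agar overnight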
TEST_CONDITIONS: 37 °C
Assign class by self-splicing fitness (ln): not lower than -2 means y; lower than -2 means n.

UCGAAGCAAUAUUACGAAUG; y
ACUGAGCAAUAUUACGUGAC; n
AUUUAGCAAUAUUACGCUGA; n
GGGCAGCAAUAUUACGAUAA; y
GGGCAGCAAUAUUACGAGGC; n
UUGCAGCAAUAUUACGAGCC; n
GUCAAGCAAUAUUACGAUCG; n
UGAGAGCAAUAUUACGAUCU; y
CAUUAGCAAUAUUACGUAAG; y
CAGGAGCAAUAUUACGGGGG; n
AAGAAGCAAUAUUACGGCCG; y
CGCUAGCAAUAUUACGCUCA; y
CAUAAGCAAUAUUACGUUCU; n
UACCAGCAAUAUUACGCCUU; y
ACCAAGCAAUAUUACGGCGU; y
CCUUAGCAAUAUUACGCUCU; y
AGACAGCAAUAUUACGCAAC; y
GCCGAGCAAUAUUACGGGCU; n
AGGUAGCAAUAUUACGACUA; y
CUAUAGCAAUAUUACGGUAA; y
AGAGAGCAAUAUUACGGUUA; y
CUUAAGCAAUAUUACGCUGC; y
UUAUAGCAAUAUUACGUGGC; n
AACGAGCAAUAUUACGAUGA; n
UCCUAGCAAUAUUACGAACU; y
ACCCAGCAAUAUUACGGUUC; y
CCUGAGCAAUAUUACGUCUC; n
GAGUAGCAAUAUUACGAGUC; y
AGACAGCAAUAUUACGGUAC; n
UACCAGCAAUAUUACGUCAG; y
ACGUAGCAAUAUUACGUGAA; y
GAGUAGCAAUAUUACGCACU; y
GGGCAGCAAUAUUACGGAAA; n
CAAAAGCAAUAUUACGGACA; y
GCAAAGCAAUAUUACGGGCA; y
CAAGAGCAAUAUUACGACUA; n
CUUCAGCAAUAUUACGCGCG; y
GUAUAGCAAUAUUACGACUU; y
CUAUAGCAAUAUUACGAUAU; n
CGGCAGCAAUAUUACGCCCU; y
CUGGAGCAAUAUUACGUGUU; n
CCUCAGCAAUAUUACGCAUA; n
GCUCAGCAAUAUUACGACGC; y
AUAGAGCAAUAUUACGUAAU; y
AGACAGCAAUAUUACGGGAU; y
AGCAAGCAAUAUUACGUAUU; y
AAAUAGCAAUAUUACGUGAA; y
GUGGAGCAAUAUUACGUGAC; y
GUGAAGCAAUAUUACGACCG; y
UACGAGCAAUAUUACGAAGC; y
CCUCAGCAAUAUUACGGUGC; n
UUAUAGCAAUAUUACGUAAG; y
GCACAGCAAUAUUACGAAUA; y
AAUCAGCAAUAUUACGGCCU; y
